Consider the following molecules and their measured inhibition at 10 mg/kg readings.
Test system: platelet aggregation
Assay: extra vivo platelet aggregation inhibiting activity after oral administration, collagen as aggregating agent
Assay type: in vivo, guinea pigs
Settings: Cavia porcellus, po, 4 h, read-out: Rate of inhibition of platelet aggregation, Collagen, After 4 hours
Procedure: The collagent floating solution made by Hormone Company of west Germany was diluted with physiological saline to a concentration of 100 µg/ml for use in the test. […] The inhibiting rate of the test drugs was measured as follows: • 450 µℓ of PRP was put into a cuvette of an aggregometer, and then 50 µℓ of the aggregating agent was added. The aggregation curve was recorded for 3 minutes, and the maximum degree of aggregation was measured. […]
Number in %, nothing else.

[[record]]
molecule = "CCOCCC(C)n1c(C)c(C(=O)c2ccccc2)c2ccccc21 (centres unmarked)"
test_value = 100

[[record]]
molecule = "Cc1c(C(=O)c2ccccc2)c2ccccc2n1C(C)CSc1ccccn1 (centres unmarked)"
test_value = 100

[[record]]
molecule = "COCC(C)n1c(C)c(C(=O)c2ccccc2)c2cc(OC)ccc21 (centres unmarked)"
test_value = 0.5

[[record]]
molecule = "Cc1c(C(=O)c2ccccc2)c2ccccc2n1C(C)CCO (centres unmarked)"
test_value = 100

[[record]]
molecule = "CCSCCC(C)n1c(C)c(C(=O)c2ccccc2)c2ccccc21 (centres unmarked)"
test_value = 100


Request: Find inhibition at 10 mg/kg (platelet aggregation) for the entry CCC(COC(C)=O)n1c(C)c(C(=O)c2ccccc2)c2ccccc21 (centres unmarked)
Result: 93.8

Request: CCC(COC)n1c(C)c(C(=O)c2ccccc2)c2ccccc21 (centres unmarked) ?
Result: 81.1

Request: COc1ccc2c(c1)c(C(=O)c1ccccc1)c(C)n2C(C)CO (centres unmarked) ?
Result: 0

Request: CCSCC(CC)n1c(C)c(C(=O)c2ccccc2)c2ccccc21 (centres unmarked) ?
Result: 100

Request: Cc1c(C(=O)c2ccccc2)c2ccccc2n1C(C)CCS (centres unmarked) ?
Result: 100

Request: COCCn1c(C)c(C(=O)c2ccccc2)c2ccccc21 [Comparison 4, reference compound] ?
Result: 7.6

Request: COCCC(C)n1c(C)c(C(=O)c2ccccc2)c2ccccc21 (centres unmarked) ?
Result: 100

Request: Cc1c(C(=O)c2ccccc2)c2ccccc2n1C(C)CSc1ccccc1 (centres unmarked) ?
Result: 100

Request: CC(=O)C(C)n1c(C)c(C(=O)c2ccccc2)c2ccccc21 (centres unmarked) ?
Result: 48.4

Request: Cc1c(C(=O)c2ccccc2)c2cc(O)ccc2n1C(C)CO (centres unmarked) ?
Result: 2.2

Request: CCOCC(CC)n1c(C)c(C(=O)c2ccccc2)c2ccccc21 (centres unmarked) ?
Result: 100

Request: CCSCC(C)n1c(C)c(C(=O)c2ccccc2)c2ccccc21 (centres unmarked) ?
Result: 100

----------
system: mucous membrane of the stomach; experiment: Action of causing trouble to the mucous membrane of the stomach (ulcer index); format: in vivo, Male S.D. rats; settings: oral dosage 400 mg/kg in propylene glycol; fasted rats
Consider the following compounds and their measured Ulcer Index (mm ± S.E.) readings.
Number in mm, nothing else.

// solved cases for Ulcer Index (mm ± S.E.) follow
[[record]]
compound = "COCC(C)n1c(C)c(C(=O)c2ccccc2)c2ccccc21 (centres unmarked) [(300)]"
target_or_test_system = "mucous membrane of the stomach"
measured_attribute = "Ulcer Index (mm ± S.E.)"
test_value = 1.4

[[record]]
compound = "CCOCC(C)n1c(C)c(C(=O)c2ccccc2)c2ccccc21 (centres unmarked) [(302)]"
target_or_test_system = "mucous membrane of the stomach"
measured_attribute = "Ulcer Index (mm ± S.E.)"
test_value = 0.9

[[record]]
compound = "CC(C)c1[nH]c2ccccc2c1C(=O)c1cccnc1 [Comparison 3, reference compound]"
target_or_test_system = "mucous membrane of the stomach"
measured_attribute = "Ulcer Index (mm ± S.E.)"
test_value = 7.9

[[record]]
compound = "CCCCC(C)n1c(C)c(C(=O)c2ccccc2)c2ccccc21 (centres unmarked) [(705), 3-Benzoyl-1-(2-hexyl)-2-methylindole]"
target_or_test_system = "mucous membrane of the stomach"
measured_attribute = "Ulcer Index (mm ± S.E.)"
test_value = 0


Please look at the following compound next.
Request: What does the record list as Ulcer Index (mm ± S.E.) for CCCCCC(C)n1c(C)c(C(=O)c2ccccc2)c2ccccc21 (stereo not drawn) [(706), 3-Benzoyl-l-(2-heptyl)-2-methylindole] ?
Result: 0.1

----------
system: platelet aggregation; assay: extra vivo platelet aggregation inhibiting activity after oral administration, collagen as aggregating agent; format: in vivo, guinea pigs; settings: Cavia porcellus, po, 1 h, read-out: Rate of inhibition of platelet aggregation, Collagen, After 1 hour
Measured Attribute: inhibition at 10 mg/kg (%)
Number in %, nothing else.

[[record]]
compound = "Cc1c(C(=O)c2ccccc2)c2cc(O)ccc2n1C(C)CO (centres unmarked)"
readout_unit = "%"
test_value = 72.1

[[record]]
compound = "CCC(CO)n1c(C)c(C(=O)c2ccccc2)c2ccccc21 (centres unmarked)"
readout_unit = "%"
test_value = 100

[[record]]
compound = "CCSCC(C)n1c(C)c(C(=O)c2ccccc2)c2ccccc21 (centres unmarked)"
readout_unit = "%"
test_value = 100


Request: What does the record list as inhibition at 10 mg/kg for COCCC(C)n1c(C)c(C(=O)c2ccccc2)c2ccccc21 (centres unmarked) ?
Result: 100

Request: CCC(COC)n1c(C)c(C(=O)c2ccccc2)c2ccccc21 (centres unmarked) ?
Result: 100

Request: CCC(COC(C)=O)n1c(C)c(C(=O)c2ccccc2)c2ccccc21 (centres unmarked) ?
Result: 100

Request: CC(=O)C(C)n1c(C)c(C(=O)c2ccccc2)c2ccccc21 (centres unmarked) ?
Result: 100

Request: COCCn1c(C)c(C(=O)c2ccccc2)c2ccccc21 [Comparison 4, reference compound] ?
Result: 38

Request: CCOCCC(C)n1c(C)c(C(=O)c2ccccc2)c2ccccc21 (centres unmarked) ?
Result: 98.3

Request: CCSCC(CC)n1c(C)c(C(=O)c2ccccc2)c2ccccc21 (centres unmarked) ?
Result: 100

Request: CC(=O)OCCC(C)n1c(C)c(C(=O)c2ccccc2)c2ccccc21 (centres unmarked) ?
Result: 100

Request: Cc1c(C(=O)c2ccccc2)c2ccccc2n1C(C)CCO (centres unmarked) ?
Result: 100

----------
Tested on: platelet aggregation
Assay: extra vivo platelet aggregation inhibiting activity after oral administration, collagen as aggregating agent
Type: in vivo, guinea pigs
Conditions: Cavia porcellus, po, 4 h, read-out: Rate of inhibition of platelet aggregation, Collagen, After 4 hours
Description: The collagent floating solution made by Hormone Company of west Germany was diluted with physiological saline to a concentration of 100 µg/ml for use in the test. […] The inhibiting rate of the test drugs was measured as follows: • 450 µℓ of PRP was put into a cuvette of an aggregometer, and then 50 µℓ of the aggregating agent was added. The aggregation curve was recorded for 3 minutes, and the maximum degree of aggregation was measured. […]
Consider the following compounds and their measured inhibition at 10 mg/kg readings.
Number in %, nothing else.

[[record]]
compound = "CCC(CO)n1c(C)c(C(=O)c2ccccc2)c2ccccc21 (stereo not drawn)"
target_or_test_system = "platelet aggregation"
readout_unit = "%"
test_value = 100


Request: What does the record list as inhibition at 10 mg/kg for Cc1c(C(=O)c2ccccc2)c2ccccc2n1C(C)C[S+]([O-])c1ccccc1 (stereo not drawn) ?
Result: 100

Request: CC(=O)OCCC(C)n1c(C)c(C(=O)c2ccccc2)c2ccccc21 (stereo not drawn) ?
Result: 100

Sourced from patent EP0022634A1
